Assay: Serum level, rat
Format: in vivo
Settings: po, 50 mg/kg i.g., 0.5 h
quantity: concentration at 0.5 h (ng/mL)
Report as a plain number; the unit ng/mL is understood.

# smiles_code, observed
data = [
    ("COc1cc(Cc2cnc(N)nc2N)cc(OC)c1OC", 4500),
]

Next compound, concentration at 0.5 h to be filled in.
Entry COc1cc(Cc2cnc(N)nc2N)cc(OC)c1SC has what concentration at 0.5 h?
5000
